study.system: TLR9 (Homo sapiens, UniProt Q9NR96)
Sequence (Q9NR96 26-1032): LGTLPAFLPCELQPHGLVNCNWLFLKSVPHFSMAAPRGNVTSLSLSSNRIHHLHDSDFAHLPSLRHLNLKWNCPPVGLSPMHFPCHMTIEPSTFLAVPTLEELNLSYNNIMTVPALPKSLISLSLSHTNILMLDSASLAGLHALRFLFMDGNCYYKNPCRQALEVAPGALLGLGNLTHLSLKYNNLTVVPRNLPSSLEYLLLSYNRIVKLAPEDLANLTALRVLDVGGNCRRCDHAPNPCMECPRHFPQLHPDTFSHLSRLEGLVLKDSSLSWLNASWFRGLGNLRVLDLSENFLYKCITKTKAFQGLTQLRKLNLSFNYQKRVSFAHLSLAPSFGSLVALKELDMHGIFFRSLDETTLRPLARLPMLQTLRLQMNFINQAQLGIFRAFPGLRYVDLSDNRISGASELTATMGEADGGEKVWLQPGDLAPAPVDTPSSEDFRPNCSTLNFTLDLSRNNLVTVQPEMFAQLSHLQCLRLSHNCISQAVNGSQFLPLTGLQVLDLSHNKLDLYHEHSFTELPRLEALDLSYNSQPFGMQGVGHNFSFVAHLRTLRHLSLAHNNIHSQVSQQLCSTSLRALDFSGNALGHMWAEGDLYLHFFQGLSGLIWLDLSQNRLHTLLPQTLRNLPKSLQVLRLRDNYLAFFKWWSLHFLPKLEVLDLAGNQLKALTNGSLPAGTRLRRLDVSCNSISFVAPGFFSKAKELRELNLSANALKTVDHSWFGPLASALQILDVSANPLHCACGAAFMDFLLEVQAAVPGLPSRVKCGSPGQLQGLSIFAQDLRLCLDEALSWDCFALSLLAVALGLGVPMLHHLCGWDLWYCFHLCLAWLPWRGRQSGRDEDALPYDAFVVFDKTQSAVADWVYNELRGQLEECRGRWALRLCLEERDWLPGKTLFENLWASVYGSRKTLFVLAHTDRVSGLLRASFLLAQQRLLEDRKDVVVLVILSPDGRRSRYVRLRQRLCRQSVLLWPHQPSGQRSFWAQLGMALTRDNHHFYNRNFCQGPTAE
protocol.text: HEK293-Blue-hTLR-9 cells assay (SEAP reporter, ODN2006 stimulation)
Format: cell-based
Set-up: host or cells: HEK293 (HEK-Blue hTLR9)
measurement.parameters: HEK293-Blue-hTLR9 cells, ODN2006, 20 hrs; read-out: HEK/hTLR9 IC50
value.kind: IC50 (nM)
Record the value in nM, omitting the unit from your answer.

Worked examples follow.
CO[C@H]1CN(c2cc3c(cn2)CN(c2cc(C)nc4c2cnn4C)C[C@@H]3C)CC[C@@H]1N    115
C[C@H]1CN(c2ccnc3c2cnn3C)Cc2ccc(N3CCC(N4CC(N)C4)CC3)cc21    150
Cn1ncc2c(N3CCc4cc(N5CCNCC5)ccc4C3)ccnc21    185

In the following, a different compound is considered.
Input: Returns the measured IC50 for the input compound. Input: `C[C@H]1CN(c2ccnc3c2cnn3C)Cc2ccc(N3CCNCC3)nc21`
Output: 264

----------
study.system: human TLR8 (Homo sapiens, UniProt Q9NR97)
Sequence (Q9NR97 27-1041): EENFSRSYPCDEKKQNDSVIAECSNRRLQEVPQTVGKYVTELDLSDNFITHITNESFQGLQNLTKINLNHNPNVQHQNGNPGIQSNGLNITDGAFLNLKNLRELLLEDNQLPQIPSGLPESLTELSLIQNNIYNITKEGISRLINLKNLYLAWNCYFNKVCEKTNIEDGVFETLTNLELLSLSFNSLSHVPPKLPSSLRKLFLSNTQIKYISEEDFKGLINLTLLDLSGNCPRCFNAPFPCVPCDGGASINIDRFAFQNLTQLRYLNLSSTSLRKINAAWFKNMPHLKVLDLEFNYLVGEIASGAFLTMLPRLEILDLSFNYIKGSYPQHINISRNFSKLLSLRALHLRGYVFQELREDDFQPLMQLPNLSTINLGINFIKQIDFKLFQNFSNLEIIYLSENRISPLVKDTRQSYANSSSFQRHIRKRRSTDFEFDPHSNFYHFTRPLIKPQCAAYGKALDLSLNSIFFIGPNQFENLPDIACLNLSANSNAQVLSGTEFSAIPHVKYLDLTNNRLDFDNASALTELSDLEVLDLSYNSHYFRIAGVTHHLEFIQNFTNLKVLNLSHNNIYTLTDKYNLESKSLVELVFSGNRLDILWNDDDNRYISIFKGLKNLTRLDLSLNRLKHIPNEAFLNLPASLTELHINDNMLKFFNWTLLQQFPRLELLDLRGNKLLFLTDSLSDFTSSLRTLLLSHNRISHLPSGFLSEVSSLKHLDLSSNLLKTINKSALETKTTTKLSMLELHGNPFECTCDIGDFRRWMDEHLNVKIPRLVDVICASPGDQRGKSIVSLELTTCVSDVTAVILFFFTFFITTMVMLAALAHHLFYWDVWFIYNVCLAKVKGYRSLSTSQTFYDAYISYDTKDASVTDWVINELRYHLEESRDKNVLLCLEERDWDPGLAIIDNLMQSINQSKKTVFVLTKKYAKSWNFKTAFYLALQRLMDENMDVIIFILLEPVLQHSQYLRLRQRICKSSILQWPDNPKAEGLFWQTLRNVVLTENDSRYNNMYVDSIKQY
protocol.text: HEK293-Blue-hTLR-8 cells assay (SEAP reporter, R848 stimulation)
measurement.parameters: HEK293-Blue-hTLR8 cells, R848, 20 hrs; read-out: HEK/hTLR8 IC50
value.kind: IC50

Worked examples follow.
Cc1cc(N2Cc3ccc(N4CCC5(CCNCC5)CC4)cc3C(C)C2)c2cnn(C)c2n1 (stereo not drawn) [Example 5]    10 nM
C[C@H]1CN(c2ccnc3c2cnn3C)Cc2ccc(N3CCC(N4CC[C@@H](N)[C@H](O)C4)CC3)cc21 [Example 29]    2 nM

Input: Returns the measured IC50 for the input compound. Input: C[C@H]1CN(c2ccnc3c2cnn3C)Cc2ccc(N3CCN[C@H](CO)C3)cc21 [Example 51]
Output: 4 nM

----------
study.system: human TLR7 (Homo sapiens, UniProt Q9NYK1)
Sequence (Q9NYK1 27-1049): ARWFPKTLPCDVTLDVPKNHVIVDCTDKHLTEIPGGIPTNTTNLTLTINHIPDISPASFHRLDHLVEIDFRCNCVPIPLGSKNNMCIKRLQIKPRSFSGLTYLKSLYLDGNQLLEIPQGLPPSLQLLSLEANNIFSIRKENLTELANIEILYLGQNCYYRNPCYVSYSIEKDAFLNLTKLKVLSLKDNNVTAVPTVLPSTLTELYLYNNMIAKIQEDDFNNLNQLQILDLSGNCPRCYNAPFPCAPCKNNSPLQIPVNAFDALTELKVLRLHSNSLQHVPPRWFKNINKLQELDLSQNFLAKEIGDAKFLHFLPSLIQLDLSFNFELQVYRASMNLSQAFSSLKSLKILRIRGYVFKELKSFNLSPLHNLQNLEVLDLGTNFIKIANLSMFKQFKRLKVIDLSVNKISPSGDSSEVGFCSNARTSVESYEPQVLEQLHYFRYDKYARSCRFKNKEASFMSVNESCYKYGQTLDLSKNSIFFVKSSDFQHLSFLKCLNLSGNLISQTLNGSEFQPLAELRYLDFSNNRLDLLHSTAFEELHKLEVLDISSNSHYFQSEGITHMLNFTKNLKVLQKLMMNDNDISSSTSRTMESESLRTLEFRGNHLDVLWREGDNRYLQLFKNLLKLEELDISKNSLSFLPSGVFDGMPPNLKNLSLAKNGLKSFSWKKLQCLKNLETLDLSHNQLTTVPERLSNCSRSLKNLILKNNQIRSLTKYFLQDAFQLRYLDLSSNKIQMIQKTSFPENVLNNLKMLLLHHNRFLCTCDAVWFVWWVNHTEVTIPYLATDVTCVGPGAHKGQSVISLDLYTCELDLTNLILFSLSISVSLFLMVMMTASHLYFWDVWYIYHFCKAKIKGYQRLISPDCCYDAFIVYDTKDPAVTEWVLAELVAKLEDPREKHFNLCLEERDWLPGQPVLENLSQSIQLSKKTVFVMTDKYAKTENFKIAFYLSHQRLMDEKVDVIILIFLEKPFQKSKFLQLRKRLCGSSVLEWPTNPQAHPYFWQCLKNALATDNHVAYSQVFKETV
protocol.text: HEK293-Blue-hTLR-7 cells assay (SEAP reporter, R848 stimulation)
measurement.parameters: HEK293-Blue-hTLR7 cells, R848, 20 hrs; read-out: HEK/hTLR7 IC50
value.kind: IC50 (nM)
Record the value in nM, omitting the unit from your answer.

CO[C@@H]1CN(C2CCN(c3ccc4c(c3)[C@@H](C)CN(c3ccnc5c3cnn5C)C4)CC2)C[C@H]1N    2
Cc1cc(N2Cc3ccc(OC4CCNCC4)nc3[C@@H](C)C2)c2cnn(C)c2n1    5
C[C@H]1CN(c2ccnc3c2cnn3C)Cc2ccc(N3CCC(N4CC(N)C4)CC3)cc21    4

In the following, a different molecule is considered.
Input: Request - read-out IC50 | tested on human TLR7 (Homo sapiens, UniProt Q9NYK1) | molecule C[C@H]1CN(c2ccnc3c2cnn3C)Cc2ccc(N3CC4CNC[C@H]4C3=O)cc21 (relative stereo)
Output: 8

----------
Reported log10 of IC50 values for the following compounds.
study.system: UniProt:Q9NR97
protocol.text: HEK293-Blue-hTLR-8 cells assay (SEAP reporter, R848 stimulation)
measurement.parameters: HEK293-Blue-hTLR8 cells, R848, 20 hrs; read-out: HEK/hTLR8 IC50
Kindly note that the scale is log10 and the underlying IC50 is in nM.

Cc1cc(N2Cc3ccc(OC[C@@H]4CNCCN4)cc3[C@@H](C)C2)c2cnn(C)c2n1 [Example 31]    0.30

Input: Returns the measured log10 of IC50 for the input compound. Input: C[C@H]1CN(c2ccnc3c2cnn3C)Cc2ccc(N3CCC(N4CCNCC4)CC3)cc21 [Example 10]
Output: 0.00

Input: Returns the measured log10 of IC50 for the input compound. Input: C[C@H]1CN(c2ccnc3c2cnn3C)Cc2ccc(O[C@@H]3C[C@H]4CNCCN4C3)cc21 [Example 42]
Output: 0.30

Input: Returns the measured log10 of IC50 for the input compound. Input: Cc1cc(N2Cc3ccc(OC[C@H]4CNCCN4)cc3[C@@H](C)C2)c2cnn(C)c2n1 [Example 30]
Output: 0.30

Input: Returns the measured log10 of IC50 for the input compound. Input: Cc1cc(N2Cc3ccc(N4CCN(C)CC4)nc3[C@@H](C)C2)c2cnn(C)c2n1 [Example 67]
Output: 0.00

----------
protocol.text: Single dose pharmacokinetics (PK) study in male Wister-Han rats
Format: in vivo, rat
measurement.parameters: rat, PO 10 mg/kg, plasma
value.kind: Cmax (ng/mL)
Record the value in ng/mL, omitting the unit from your answer.

Input: Returns the measured Cmax for the input molecule. Input: `CO[C@@H]1CN(c2ccc3c(n2)[C@@H](C)CN(c2cc(C)nc4c2cnn4C)C3)C[C@H]1N`
Output: 22200

Input: Returns the measured Cmax for the input molecule. Input: `CO[C@@H]1CN(c2ccc3c(c2)[C@@H](C)CN(c2cc(C)nc4c2cnn4C)C3)C[C@H]1N`
Output: 1600

Input: Returns the measured Cmax for the input molecule. Input: `CO[C@@H]1CN(c2ccc3c(c2)[C@@H](C)CN(c2ccnc4c2cnn4C)C3)C[C@H]1N`
Output: 1140
